Each recorded value in this set is attributed to the supplement of paper PMC6555819.

- System: PPARa:RXRa (NR concentration 270 nM, RXRa partner concentration 90 nM)
- Test Name: PBM binding z-score (relative to random genomic background probes); higher = stronger binding; sequences stand for … in GC…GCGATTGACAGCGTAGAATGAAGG
Tag: Criterion met if measured PBM binding z-score is not below 4, Criterion not met if it is.

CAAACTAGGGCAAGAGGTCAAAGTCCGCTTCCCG    Criterion met
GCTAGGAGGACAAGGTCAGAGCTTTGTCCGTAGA    Criterion not met
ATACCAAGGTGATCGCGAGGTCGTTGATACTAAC    Criterion not met
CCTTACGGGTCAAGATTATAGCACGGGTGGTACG    Criterion met
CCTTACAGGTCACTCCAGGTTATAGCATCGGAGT    Criterion met

Does PBM binding z-score meet or surpass 4 for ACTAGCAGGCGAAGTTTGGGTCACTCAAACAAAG ? Criterion not met

Now the same for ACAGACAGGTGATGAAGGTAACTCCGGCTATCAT Criterion not met

Now the same for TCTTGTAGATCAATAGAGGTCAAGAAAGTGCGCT Criterion met

###

- Test system: RARb:RXRa (NR concentration 270 nM, RXRa partner concentration 90 nM)
- Test Name: PBM binding z-score (relative to random genomic background probes); higher = stronger binding; sequences stand for … in GC…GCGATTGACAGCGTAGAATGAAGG
Tag: 1 (yes) if measured PBM binding z-score is not below 3, 0 (no) if it is.

Sample answers from the record:
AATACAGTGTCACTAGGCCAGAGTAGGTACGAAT    0 (no)
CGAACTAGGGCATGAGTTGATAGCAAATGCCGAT    0 (no)
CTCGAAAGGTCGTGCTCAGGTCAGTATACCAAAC    1 (yes)
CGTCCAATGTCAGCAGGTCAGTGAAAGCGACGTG    0 (no)

Does PBM binding z-score meet or surpass 3 for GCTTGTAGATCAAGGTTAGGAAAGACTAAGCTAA ? 0 (no)

###

- System: PPARg:RXRa 90nM:30nM, anti-RXR (NR concentration 90 nM, RXRa partner concentration 30 nM)
- Test Name: PBM binding z-score (relative to random genomic background probes); higher = stronger binding; sequences stand for … in GC…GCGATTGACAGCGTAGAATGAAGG
Tag: Met if measured PBM binding z-score is not below 3, Not met if it is.

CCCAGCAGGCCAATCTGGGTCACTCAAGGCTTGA    Not met
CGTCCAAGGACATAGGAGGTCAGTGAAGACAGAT    Not met
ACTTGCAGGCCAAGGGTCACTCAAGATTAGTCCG    Met

Does PBM binding z-score meet or surpass 3 for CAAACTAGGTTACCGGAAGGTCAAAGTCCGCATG ? Met

Now the same for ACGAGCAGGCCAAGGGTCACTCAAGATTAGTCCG Met

Now the same for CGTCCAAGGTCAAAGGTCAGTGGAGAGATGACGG Met

Now the same for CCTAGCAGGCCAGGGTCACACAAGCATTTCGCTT Not met

###

- System: PPARg:RXRa 270nM:90nM, anti-RXR (NR concentration 270 nM, RXRa partner concentration 90 nM)
- Test Name: PBM binding z-score (relative to random genomic background probes); higher = stronger binding; sequences stand for … in GC…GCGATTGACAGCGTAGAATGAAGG
Measured Parameter: PBM binding z-score
Answers are plain numbers.

Answered examples (4):
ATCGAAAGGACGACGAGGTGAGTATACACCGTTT    -0.0154
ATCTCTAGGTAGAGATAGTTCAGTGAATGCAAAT    0.0156
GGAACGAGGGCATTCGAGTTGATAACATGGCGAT    0.636
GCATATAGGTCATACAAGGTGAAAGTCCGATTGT    6.55

Provide PBM binding z-score for all items below, preserving their order.
1. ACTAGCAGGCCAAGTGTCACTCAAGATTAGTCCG
2. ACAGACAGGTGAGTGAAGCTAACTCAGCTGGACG
3. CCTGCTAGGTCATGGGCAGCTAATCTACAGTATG
4. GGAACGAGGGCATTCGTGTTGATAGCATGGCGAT
5. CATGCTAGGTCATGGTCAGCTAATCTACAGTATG
6. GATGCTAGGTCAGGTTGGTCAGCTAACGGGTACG
7. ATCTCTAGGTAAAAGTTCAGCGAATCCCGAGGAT
8. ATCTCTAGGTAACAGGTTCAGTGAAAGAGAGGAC

3.56
-0.404
3.2
0.768
2.83
0.805
8.21
2.9

Provide PBM binding z-score for all items below, preserving their order.
1. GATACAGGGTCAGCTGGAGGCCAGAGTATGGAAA
2. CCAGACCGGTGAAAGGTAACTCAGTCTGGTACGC
3. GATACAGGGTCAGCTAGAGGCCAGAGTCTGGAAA
4. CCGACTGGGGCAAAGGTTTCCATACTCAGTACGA
5. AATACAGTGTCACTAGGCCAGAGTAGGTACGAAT
6. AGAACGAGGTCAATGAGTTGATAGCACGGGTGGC

1. 3.62
2. 4.02
3. 3.41
4. 7.78
5. 1.52
6. 6.01

Provide PBM binding z-score for all items below, preserving their order.
1. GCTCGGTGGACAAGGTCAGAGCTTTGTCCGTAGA
2. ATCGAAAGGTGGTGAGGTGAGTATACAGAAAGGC
3. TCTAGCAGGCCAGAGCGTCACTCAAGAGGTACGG
4. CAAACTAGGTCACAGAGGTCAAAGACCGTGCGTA
5. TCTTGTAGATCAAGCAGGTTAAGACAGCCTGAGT

1. 1.14
2. 0.261
3. 0.612
4. 8.43
5. 1.3

Provide PBM binding z-score for all items below, preserving their order.
1. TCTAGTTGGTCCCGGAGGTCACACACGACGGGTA
2. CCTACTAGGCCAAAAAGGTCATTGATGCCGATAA
3. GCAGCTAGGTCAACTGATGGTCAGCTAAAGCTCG

1. 2.9
2. 4.24
3. 3.01
